protocol_text: Fast gradient RP-HPLC on C18 column (CHI lipophilicity)
Type: physicochemical
cond: from chromatographically determined CHI on nonionized forms (pH 10.6); CHI LogP = 0.054 × CHI − 1.467
quantity_measured: CHI LogP

[
  {
    "molecule": "COc1ccccc1N1CCN(CCCCCN2C(=O)c3ccccc3S2(=O)=O)CC1 [molecule 6]",
    "quantity_measured": "CHI LogP",
    "meas_value": 3.49
  },
  {
    "molecule": "COc1ccccc1N1CCN(Cc2ccc(CN3C(=O)c4ccccc4S3(=O)=O)cc2)CC1 [molecule 26]",
    "quantity_measured": "CHI LogP",
    "meas_value": 3.93
  },
  {
    "molecule": "O=C1c2ccccc2S(=O)(=O)N1CCCCCCN1CCN(c2ccc(Cl)c(Cl)c2)CC1 [molecule 18]",
    "quantity_measured": "CHI LogP",
    "meas_value": 4.93
  }
]

###

experimental_target: human serum albumin (HSA) (Homo sapiens)
protocol_text: HSA-HPLC, biomimetic chromatography on Chiralpak HSA column
Format: in vitro ADME
Set-up: purchased Daicel Chiral Technologies, West Chester, PA, USA
cond: pH 7.4
quantity_measured: LogKHSA

Consider the reported LogKHSA for these molecules:
[
  {
    "molecule": "O=C1c2ccccc2S(=O)(=O)N1CCCCCN1CCN(c2cccc3ccccc23)CC1 [molecule 11]",
    "LogKHSA": 1.67
  },
  {
    "molecule": "O=C1c2ccccc2S(=O)(=O)N1CCCCCCN1CCN(c2cccc(Cl)c2)CC1 [molecule 16]",
    "LogKHSA": 1.71
  },
  {
    "molecule": "O=C1c2ccccc2S(=O)(=O)N1CCCCCN1CCN(c2ccc(Cl)cc2)CC1 [molecule 8]",
    "LogKHSA": 1.53
  },
  {
    "molecule": "COc1ccccc1N1CCN(CCCCCCN2C(=O)c3ccccc3S2(=O)=O)CC1 [molecule 13]",
    "LogKHSA": 0.42
  },
  {
    "molecule": "O=C1c2ccccc2S(=O)(=O)N1CCCCCN1CCN(c2ccccc2)CC1 [molecule 5]",
    "LogKHSA": 0.84
  },
  {
    "molecule": "O=C1c2ccccc2S(=O)(=O)N1CCCCN1CCN(c2ccc(Cl)cc2)CC1 [molecule 4]",
    "LogKHSA": 1.32
  },
  {
    "molecule": "O=C1c2ccccc2S(=O)(=O)N1CCCCCCN1CCN(c2ccc(Cl)cc2)CC1 [molecule 17]",
    "LogKHSA": 1.57
  },
  {
    "molecule": "O=C1c2ccccc2S(=O)(=O)N1CCCCCN1CCN(c2ncccn2)CC1 [molecule 9]",
    "LogKHSA": 0.58
  },
  {
    "molecule": "COc1ccccc1N1CCN(CCCCCN2C(=O)c3ccccc3S2(=O)=O)CC1 [molecule 6]",
    "LogKHSA": 0.68
  },
  {
    "molecule": "COc1ccccc1N1CCN(Cc2ccc(CN3C(=O)c4ccccc4S3(=O)=O)cc2)CC1 [molecule 26]",
    "LogKHSA": 1.19
  }
]

P: O=C1c2ccccc2S(=O)(=O)N1CCCCCCN1CCN(c2ncccn2)CC1 [molecule 23]
Q: O=C1c2ccccc2S(=O)(=O)N1CCCCN1CCN(c2cccc(Cl)c2Cl)CC1 [molecule 3]
Lower value of LogKHSA belongs to which: P or Q ? Respond with the label that goes with your answer.
P

a: COc1cccc(N2CCN(CCCCCCN3C(=O)c4ccccc4S3(=O)=O)CC2)c1 [molecule 14]
b: O=C1c2ccccc2S(=O)(=O)N1CCCCCCN1CCN(c2cccc3sccc23)CC1 [molecule 25]
Rank a against b by their LogKHSA values and give the higher one. Respond with the label that goes with your answer.
b
(b: 1.57, a: 0.93)

###

experimental_target: human serum albumin (HSA) (Homo sapiens, UniProt P02768)
Sequence (P02768 25-609): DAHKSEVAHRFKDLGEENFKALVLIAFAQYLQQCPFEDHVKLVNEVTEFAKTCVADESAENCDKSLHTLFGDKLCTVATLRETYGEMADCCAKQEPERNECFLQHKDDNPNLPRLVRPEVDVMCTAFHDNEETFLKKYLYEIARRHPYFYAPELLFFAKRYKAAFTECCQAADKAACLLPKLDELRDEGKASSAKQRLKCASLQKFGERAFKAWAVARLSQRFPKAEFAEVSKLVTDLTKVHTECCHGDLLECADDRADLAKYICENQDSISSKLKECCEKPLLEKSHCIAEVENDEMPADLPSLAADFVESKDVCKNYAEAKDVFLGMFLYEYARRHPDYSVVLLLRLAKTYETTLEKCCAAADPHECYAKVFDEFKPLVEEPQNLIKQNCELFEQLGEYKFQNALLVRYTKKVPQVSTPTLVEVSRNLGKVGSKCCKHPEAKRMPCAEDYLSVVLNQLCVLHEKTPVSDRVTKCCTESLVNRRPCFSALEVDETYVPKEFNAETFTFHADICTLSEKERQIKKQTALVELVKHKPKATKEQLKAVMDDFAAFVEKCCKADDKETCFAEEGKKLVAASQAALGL
protocol_text: HSA-HPLC, biomimetic chromatography on Chiralpak HSA column
Assay type: in vitro ADME
Set-up: purchased Daicel Chiral Technologies, West Chester, PA, USA
cond: pH 7.4
Description: Utilizing columns modified by plasma proteins, such as human serum albumin (HSA), allows for estimating binding to plasma protein (PPB). Generally, PPB affects drug pharmacokinetics, including distribution, half-life, and clearance. While lipophilicity is a well-known factor in determining PPB, it should also be considered in early drug discovery. In general, more lipophilic compounds tend to have higher percentages of PP due to nonspecific interactions with proteins. […]
quantity_measured: LogKHSA

[
  {
    "structure_string": "COc1ccccc1N1CCN(CCCCN2C(=O)c3ccccc3S2(=O)=O)CC1",
    "LogKHSA": 1.72
  },
  {
    "structure_string": "O=C1c2ccccc2S(=O)(=O)N1CCCCCCN1CCN(c2ccccc2F)CC1",
    "LogKHSA": 1.00
  },
  {
    "structure_string": "O=C1c2ccccc2S(=O)(=O)N1CCCCCCN1CCN(c2cccc3ccccc23)CC1",
    "LogKHSA": 1.75
  }
]

P: COc1ccc(N2CCN(CCCCCCN3C(=O)c4ccccc4S3(=O)=O)CC2)cc1
Q: O=C1c2ccccc2S(=O)(=O)N1CCCCCCN1CCN(c2ccccc2)CC1
R: O=C1c2ccccc2S(=O)(=O)N1CCCCCCN1CCN(c2ccc(Cl)c(Cl)c2)CC1
# rank_down: sort by LogKHSA, max first A complete answer lists every label in the requested sequence.
R, Q, P
(R: 2.27, Q: 1.00, P: 0.65)

1: O=C1c2ccccc2S(=O)(=O)N1CCCCCCN1CCN(c2ccccn2)CC1
2: O=C1c2ccccc2S(=O)(=O)N1CCCCCCN1CCN(c2cccc(C(F)(F)F)c2)CC1
Lower value of LogKHSA belongs to which: 1 or 2 ? Respond with the label that goes with your answer.
1

###

protocol_text: Fast gradient RP-HPLC on C18 column (CHI lipophilicity)
Assay type: physicochemical
cond: C18 column, pH 10.6
Method: Considering the significant differences in the calculations obtained, the next step of our investigation considered the determination of lipophilicity using a chromatographic approach. […] Therefore, the CHI under pH10.6 can be considered and converted to chromatographically determined LogP, called CHI LogP. A cluster analysis (CA) was performed to compare chromatographically determined and calculated lipophilicity. […] The differences are also visible on the calculated correlation matrix (Figure 2). […]
quantity_measured: CHIC18 pH = 10.6

[
  {
    "compound": "O=C1c2ccccc2S(=O)(=O)N1CCCCN1CCN(c2cccc(Cl)c2Cl)CC1 [molecule 3]",
    "CHIC18 pH = 10.6": 87.69
  },
  {
    "compound": "O=C1c2ccccc2S(=O)(=O)N1CCCCCCN1CCN(c2cccc3ccccc23)CC1 [molecule 21]",
    "CHIC18 pH = 10.6": 118.03
  },
  {
    "compound": "COc1ccccc1N1CCN(CCCCN2C(=O)c3ccccc3S2(=O)=O)CC1 [molecule 2]",
    "CHIC18 pH = 10.6": 109.41
  },
  {
    "compound": "O=C1c2ccccc2S(=O)(=O)N1CCCCN1CCN(c2ccc(Cl)cc2)CC1 [molecule 4]",
    "CHIC18 pH = 10.6": 100.70
  },
  {
    "compound": "O=C1c2ccccc2S(=O)(=O)N1CCCCCN1CCN(c2cccc3ccccc23)CC1 [molecule 11]",
    "CHIC18 pH = 10.6": 111.43
  },
  {
    "compound": "O=C1c2ccccc2S(=O)(=O)N1CCCCCCN1CCN(c2ncccn2)CC1 [molecule 23]",
    "CHIC18 pH = 10.6": 89.54
  },
  {
    "compound": "COc1ccccc1N1CCN(Cc2ccc(CN3C(=O)c4ccccc4S3(=O)=O)cc2)CC1 [molecule 26]",
    "CHIC18 pH = 10.6": 100.01
  },
  {
    "compound": "O=C1c2ccccc2S(=O)(=O)N1CCCCCCN1CCN(c2cccc(C(F)(F)F)c2)CC1 [molecule 19]",
    "CHIC18 pH = 10.6": 114.05
  },
  {
    "compound": "O=C1c2ccccc2S(=O)(=O)N1CCCCCN1CCN(c2cccc(Cl)c2Cl)CC1 [molecule 7]",
    "CHIC18 pH = 10.6": 112.92
  },
  {
    "compound": "O=C1c2ccccc2S(=O)(=O)N1CCCCCCN1CCN(c2cccc3sccc23)CC1 [molecule 25]",
    "CHIC18 pH = 10.6": 108.64
  },
  {
    "compound": "COc1cccc(N2CCN(CCCCCCN3C(=O)c4ccccc4S3(=O)=O)CC2)c1 [molecule 14]",
    "CHIC18 pH = 10.6": 99.75
  },
  {
    "compound": "O=C1c2ccccc2S(=O)(=O)N1CCCCCCN1CCN(c2cccc(Cl)c2)CC1 [molecule 16]",
    "CHIC18 pH = 10.6": 111.92
  },
  {
    "compound": "O=C1c2ccccc2S(=O)(=O)N1CCCCCCN1CCN(c2ccccc2)CC1 [molecule 12]",
    "CHIC18 pH = 10.6": 100.78
  },
  {
    "compound": "O=C1c2ccccc2S(=O)(=O)N1CCCCCCN1CCN(c2nsc3ccccc23)CC1 [molecule 24]",
    "CHIC18 pH = 10.6": 107.33
  },
  {
    "compound": "O=C1c2ccccc2S(=O)(=O)N1CCCCCN1CCN(c2ncccn2)CC1 [molecule 9]",
    "CHIC18 pH = 10.6": 81.12
  },
  {
    "compound": "O=C1c2ccccc2S(=O)(=O)N1CCCCCCN1CCN(c2ccccn2)CC1 [molecule 22]",
    "CHIC18 pH = 10.6": 90.87
  },
  {
    "compound": "COc1ccccc1N1CCN(CCCCCCN2C(=O)c3ccccc3S2(=O)=O)CC1 [molecule 13]",
    "CHIC18 pH = 10.6": 96.78
  }
]
